Recorded values, source PubChem BioAssay (NCATS).

target: Cytochrome P450 2D6 (Homo sapiens); test: Cytochrome P450 family 2 subfamily D member 6 (CYP2D6) small molecule antagonists: luciferase biochemical (cell-free) qHTS assay (AID 1645840); conditions: P450-Glo CYP2D6 enzyme, luciferin luminescence, 1 h; series mostly up to 57.4 µM; also: nearly all actives have a fitted effect of over 55% in size
Results filed as inconclusive are left out. Calls of active or inactive are those of the source. Calls follow the shape of the dose curve; as a rule, active = well fitted inhibition curve with a large enough effect in the repeat runs; inconclusive = weak or mixed curves; inactive = flat fitted curve, though single readings scatter.
Outcome field: choose from TRUE for active, FALSE for inactive

Could you please tell me the result logged for CS(=O)c1ccc(-c2nc(-c3ccc(F)cc3)c(-c3ccncc3)[nH]2)cc1 (configuration not stated) in this assay?
TRUE

Could you please tell me the result logged for O=C1Nc2ccc(Cl)cc2C(C#CC2CC2)(C(F)(F)F)O1 (configuration not stated) in this assay?
TRUE

Could you please tell me the result logged for C[N+](C)(C)CCCCCC[N+](C)(C)C in this assay?
FALSE

Could you please tell me the result logged for CCN1CCC[C@H]1CNC(=O)c1cc(S(N)(=O)=O)ccc1OC in this assay?
FALSE

Could you please tell me the result logged for CCCCCCCCCCCC1=C(O)C(=O)C=C(O)C1=O in this assay?
FALSE

Could you please tell me the result logged for COc1cc2ncnc(-n3nc(-c4ccccn4)nc3N)c2cc1OC in this assay?
TRUE

Could you please tell me the result logged for Cc1c(NC(=O)c2ccc(C(C)(C)C)cc2)cccc1-c1cn(C)c(=O)c(Nc2ccc(C(=O)N3CCOCC3)cc2)n1 in this assay?
FALSE

Could you please tell me the result logged for COCCOC(=O)C1=C(C)NC2=C(C(=O)CC(c3ccccc3OC)C2)C1c1cccc(O)c1 (configuration not stated) in this assay?
TRUE

Could you please tell me the result logged for CCN(CC)CCNC(=O)c1ccc(N)cc1 in this assay?
FALSE

Could you please tell me the result logged for CN1C[C@H]2c3ccccc3Oc3ccc(Cl)cc3[C@@H]2C1 in this assay?
TRUE

Could you please tell me the result logged for CCCNC(=O)NS(=O)(=O)c1ccc(Cl)cc1 in this assay?
FALSE

Could you please tell me the result logged for O=C1NC(=O)C(c2ccccc2)(c2ccccc2)N1 in this assay?
FALSE
